target entity: Androgen receptor (Rattus norvegicus)
Sequence (P15207 whole entry): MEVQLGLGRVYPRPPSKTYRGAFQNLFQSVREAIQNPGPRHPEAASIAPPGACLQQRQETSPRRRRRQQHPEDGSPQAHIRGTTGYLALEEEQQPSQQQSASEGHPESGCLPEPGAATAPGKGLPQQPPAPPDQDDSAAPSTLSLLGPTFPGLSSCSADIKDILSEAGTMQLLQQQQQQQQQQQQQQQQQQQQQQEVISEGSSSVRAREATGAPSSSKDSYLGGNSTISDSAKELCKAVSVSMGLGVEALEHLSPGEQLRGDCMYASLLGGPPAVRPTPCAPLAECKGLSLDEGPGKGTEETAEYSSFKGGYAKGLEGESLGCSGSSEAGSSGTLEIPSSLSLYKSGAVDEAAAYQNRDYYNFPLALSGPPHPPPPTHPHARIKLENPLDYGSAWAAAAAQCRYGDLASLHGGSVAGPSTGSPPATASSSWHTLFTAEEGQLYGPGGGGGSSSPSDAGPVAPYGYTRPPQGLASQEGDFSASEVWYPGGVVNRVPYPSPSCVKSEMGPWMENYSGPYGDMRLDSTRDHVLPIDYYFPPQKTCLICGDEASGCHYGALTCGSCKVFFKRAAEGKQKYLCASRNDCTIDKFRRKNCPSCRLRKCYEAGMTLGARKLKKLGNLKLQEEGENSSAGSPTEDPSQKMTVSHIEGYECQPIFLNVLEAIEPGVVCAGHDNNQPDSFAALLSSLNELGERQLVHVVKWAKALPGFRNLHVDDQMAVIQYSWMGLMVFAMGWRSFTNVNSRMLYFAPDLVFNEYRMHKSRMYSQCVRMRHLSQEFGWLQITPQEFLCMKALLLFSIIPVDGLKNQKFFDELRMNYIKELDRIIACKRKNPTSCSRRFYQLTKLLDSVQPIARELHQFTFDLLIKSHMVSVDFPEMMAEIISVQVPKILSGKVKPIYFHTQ
measurement label: Ki (nM)
Supply the numeric figure in nM, leaving out any unit text.

Item under review: CC1(C)C(=O)N(c2ccc(C#N)c(C(F)(F)F)c2)C(=O)N1Cc1ccc(I)cc1 . Reported Ki? 150

Try this compound too: CC1(C)C(=O)N(c2ccc(C#N)c(C(F)(F)F)c2)C(=O)N1CCCF 321

And what about the compound CC1(C)C(=O)N(c2ccc(C#N)c(C(F)(F)F)c2)C(=O)N1CCCc1cccc(I)c1 ? 360

And for COCCN1C(=O)N(c2ccc(C#N)c(C(F)(F)F)c2)C(=O)C1(C)C ? 120

Please do the same for CC1(C)C(=O)N(c2ccc(C#N)c(C(F)(F)F)c2)C(=O)N1CCF as well. 141

// next record CC1(C)C(=O)N(c2ccc(C#N)c(C(F)(F)F)c2)C(=O)N1CCCCO 26

Same thing, different compound: CC1(C)C(=O)N(c2ccc(C#N)c(C(F)(F)F)c2)C(=O)N1CCc1cccc(I)c1 809

And what about the compound CC1(C)C(=O)N(c2ccc(C#N)c(C(F)(F)F)c2)C(=O)N1Cc1cccc(I)c1 ? 123

# iterate: CN1C(=O)N(c2ccc(C#N)c(C(F)(F)F)c2)C(=O)C1(C)C 37

What do you get for CC1(C)C(=O)N(c2ccc(C#N)c(C(F)(F)F)c2)C(=O)N1C/C=C/I ? 13

Query CC1(C)C(=O)N(c2ccc(C#N)c(C(F)(F)F)c2)C(=O)N1CCCc1ccc(I)cc1 next 65

Next compound: CC1(C)C(=O)N(c2ccc(C#N)c(C(F)(F)F)c2)C(=O)N1CCc1ccc(I)cc1 415

Where these numbers come from: ChEMBL document CHEMBL1134024
